- Tested on: HOP-62
- test-protocol: NCI tumour cell line growth inhibition, 48 h
The source made the active and inactive calls. Cut-off read from the data, not from the text of the source: active = GI50 up to about 1.1 µM and inactive = higher.
measured-metric: GI50

[
  {
    "compound": "Brc1ccc(/N=C/C=C(\\Nc2ccc(Br)cc2)C23CC4CC(CC(C4)C2)C3)cc1",
    "GI50": "19.1 µM (inactive)"
  }
]

Batch lookup, GI50 per entry.
1. CCOP(=O)(OCC)C(C)(C)N(C)/C(F)=N/C(F)(F)F
2. Clc1ccc(CCNC2(c3cc4ccccc4s3)CCCCC2)cc1Cl
3. O=C1COc2cc3c(cc2N1)SCCC(=O)N3
4. CC(C)(C)[Si](C)(C)OCC1OC(n2ccc(=O)[nH]c2=O)C(O[Si](C)(C)C(C)(C)C)[C@]12O[C@@H]2CO (stereo not given in full)

(A)
> 100 µM (inactive)
28.2 µM (inactive)
> 100 µM (inactive)
16 µM (inactive)
